Reference source: paper PMC9516332

system: 134 cancer cell lines; test: Cell viability assay (ATPlite, 72 hours), IC50 on cancer cell line panel; details: read-out: IC50 in cell proliferation assay, JAR cell line
Please go through the items and note down their IC50.
One number for each entry, in µM.

# map each compound to its IC50
1. Cc1nc(NC(=O)N2CCC[C@H]2C(N)=O)sc1-c1ccnc(C(C)(C)C(F)(F)F)c1 [alpelisib]
2. O=C(c1ccc(F)c(F)c1Nc1ccc(I)cc1F)N1CC(O)([C@@H]2CCCCN2)C1 [cobimetinib]

1. 23.2
2. 6.29

# query: IC50 | item CCc1nc(C(N)=O)c(Nc2ccc(N3CCC(N4CCN(C)CC4)CC3)c(OC)c2)nc1NC1CCOCC1 [gilteritinib] | system: 134 cancer cell lines
0.476

---

Please go through the items and note down their inhibition at 1 µM.
biological target: panel of 255 wild-type kinases (Homo sapiens, UniProt Q9HCP0); assay: Kinase panel profiling at 1 µmol/L (MSA or IMAP), percentage inhibition; assay type: biochemical; conditions: kinase CK1γ1; 1 µmol/L single concentration; read-out: %-inhibition at 1 µmol/L, CK1γ1
Sequence (Q9HCP0 whole entry): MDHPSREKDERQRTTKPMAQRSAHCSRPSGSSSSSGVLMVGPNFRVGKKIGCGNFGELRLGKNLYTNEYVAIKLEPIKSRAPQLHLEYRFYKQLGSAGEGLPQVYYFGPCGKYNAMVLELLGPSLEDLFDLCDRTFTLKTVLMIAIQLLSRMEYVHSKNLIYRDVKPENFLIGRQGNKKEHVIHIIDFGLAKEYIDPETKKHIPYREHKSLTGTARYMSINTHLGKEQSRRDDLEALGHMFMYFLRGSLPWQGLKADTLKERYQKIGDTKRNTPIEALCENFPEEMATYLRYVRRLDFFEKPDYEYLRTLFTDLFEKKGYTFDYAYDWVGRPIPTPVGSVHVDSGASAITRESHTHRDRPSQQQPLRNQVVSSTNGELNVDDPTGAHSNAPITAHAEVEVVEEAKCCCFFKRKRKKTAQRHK
Answers are plain numbers, in %.

Guide cases for inhibition at 1 µM, answers given:
{"Molecule": "COc1ccc(CN2C3CC2CN(c2ccc(-c4cc(OCC(C)(C)O)cn5ncc(C#N)c45)cn2)C3)cn1 [selpercatinib]", "inhibition at 1 µM (%)": 12}
{"Molecule": "Cc1nc(NC(=O)N2CCC[C@H]2C(N)=O)sc1-c1ccnc(C(C)(C)C(F)(F)F)c1 [alpelisib]", "inhibition at 1 µM (%)": -1.77}
{"Molecule": "CCN1C(=O)N(c2c(F)c(OC)cc(OC)c2F)Cc2cnc3[nH]c(CN4CCOCC4)cc3c21 [pemigatinib]", "inhibition at 1 µM (%)": -5.5}
{"Molecule": "O=C(Nc1cnn2ccc(N3CCC[C@@H]3c3cc(F)ccc3F)nc12)N1CC[C@H](O)C1 [larotrectinib]", "inhibition at 1 µM (%)": -4.74}
{"Molecule": "CCn1c(=O)c(-c2cc(NC(=O)Nc3ccccc3)c(F)cc2Br)cc2cnc(NC)cc21 [ripretinib]", "inhibition at 1 µM (%)": -0.282}
{"Molecule": "CN1CCN(c2ccc(C(=O)Nc3n[nH]c4ccc(Cc5cc(F)cc(F)c5)cc34)c(NC3CCOCC3)c2)CC1 [entrectinib]", "inhibition at 1 µM (%)": -1.18}
{"Molecule": "Cn1cnc2c(F)c(Nc3ccc(Br)cc3Cl)c(C(=O)NOCCO)cc21 [selumetinib]", "inhibition at 1 µM (%)": -2.69}
{"Molecule": "Cn1cnc2c(F)c(Nc3ccc(Br)cc3F)c(C(=O)NOCCO)cc21 [binimetinib]", "inhibition at 1 µM (%)": 1.68}
{"Molecule": "CCc1nc(C(N)=O)c(Nc2ccc(N3CCC(N4CCN(C)CC4)CC3)c(OC)c2)nc1NC1CCOCC1 [gilteritinib]", "inhibition at 1 µM (%)": 11}
{"Molecule": "C[C@H]1Oc2cc(cnc2N)-c2c(nn(C)c2C#N)CN(C)C(=O)c2ccc(F)cc21 [lorlatinib]", "inhibition at 1 µM (%)": -2.3}

# map each molecule to its inhibition at 1 µM
1. C[C@H](Nc1ncnc2nc[nH]c12)c1cc2cccc(Cl)c2c(=O)n1-c1ccccc1 [duvelisib]
2. FC(F)(F)c1ccc(CNc2ccc(Cc3c[nH]c4ncc(Cl)cc34)cn2)cn1 [pexidartinib]
3. COC(=O)N[C@@H](C)CNc1nccc(-c2cn(C(C)C)nc2-c2cc(Cl)cc(NS(C)(=O)=O)c2F)n1 [encorafenib]
4. CO[C@]1(C(=O)N[C@@H](C)c2ccc(-n3cc(F)cn3)nc2)CC[C@H](c2nc(C)cc(Nc3cc(C)[nH]n3)n2)CC1 [pralsetinib]

1. -1.46
2. 10
3. 26
4. 1.83

# map each molecule to its inhibition at 1 µM
1. Cc1cc(Nc2ncnc3ccc(NC4=NC(C)(C)CO4)cc23)ccc1Oc1ccn2ncnc2c1 [tucatinib]
2. CCN1CCN(c2ccc(Nc3cc(N(C)C(=O)Nc4c(Cl)c(OC)cc(OC)c4Cl)ncn3)cc2)CC1 [infigratinib]
3. COc1cc2ncnc(Nc3ccc(F)c(Cl)c3)c2cc1NC(=O)/C=C/CN1CCCCC1 [dacomitinib]
4. C=CC(=O)N1CCC([C@@H]2CCNc3c(C(N)=O)c(-c4ccc(Oc5ccccc5)cc4)nn32)CC1 [zanubrutinib]
5. Cn1cc(-c2cc3c(N4CCN(c5ncc([C@@](C)(N)c6ccc(F)cc6)cn5)CC4)ncnn3c2)cn1 [avapritinib]

1. 11
2. -0.947
3. 1.84
4. -3.73
5. 28
